Provenance of the data: patent US20250034130A1

- EXPERIMENTAL PROTOCOL: Stability at high temperature (80° C., 2 days, purity by UPLC)
- Type: physicochemical
- CONDITIONS: 2 days, glass vial with cap
READOUT TYPE: Purity change

For orientation, consider the following solved cases.
# MOLECULE, Purity change
rows = [
    ("C=CC(=O)N1CCC[C@@H](n2c(=O)n(-c3ccc(Oc4ccccc4)cc3)c3c(N)nccc32)C1 [Form CSII]", "+0.01%"),
    ("C=CC(=O)N1CCC[C@@H](n2c(=O)n(-c3ccc(Oc4ccccc4)cc3)c3c(N)nccc32)C1 [Form CSIV]", "+0.03%"),
    ("C=CC(=O)N1CCC[C@@H](n2c(=O)n(-c3ccc(Oc4ccccc4)cc3)c3c(N)nccc32)C1 [Form CSIII]", "+0.04%"),
]

Now for another entry.
For the molecule C=CC(=O)N1CCC[C@@H](n2c(=O)n(-c3ccc(Oc4ccccc4)cc3)c3c(N)nccc32)C1 [Amorphous, reference compound] , what Purity change is on record?
−1.16%
